From: patent US20250376519A1

- study.target: T1, human DLL3 (ACRO, DLL3-H52H4) (human, UniProt Q9NYJ7 27-492)
- T1 construct: Bought
- T1 sequence: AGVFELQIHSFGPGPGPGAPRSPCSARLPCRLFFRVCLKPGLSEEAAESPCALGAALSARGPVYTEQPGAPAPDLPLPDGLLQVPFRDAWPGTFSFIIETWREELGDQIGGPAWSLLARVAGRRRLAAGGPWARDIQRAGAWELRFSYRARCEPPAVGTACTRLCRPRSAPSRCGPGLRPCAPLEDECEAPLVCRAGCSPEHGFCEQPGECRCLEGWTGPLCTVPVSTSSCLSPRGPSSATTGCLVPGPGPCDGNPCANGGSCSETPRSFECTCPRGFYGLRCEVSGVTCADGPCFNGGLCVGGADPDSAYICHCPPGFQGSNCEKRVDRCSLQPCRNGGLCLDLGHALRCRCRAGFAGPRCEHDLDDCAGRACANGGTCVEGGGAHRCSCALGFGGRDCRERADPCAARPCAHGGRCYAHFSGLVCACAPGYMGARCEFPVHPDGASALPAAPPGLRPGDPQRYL
- assay.overview: SPR Biacore 8K, Ab captured on Protein A
readout.name: koff (s⁻¹)
Just the number in s⁻¹, nothing appended.

Output koff of hu30L3H5 (antibody, human IgG1, kappa, V domains shown) VH: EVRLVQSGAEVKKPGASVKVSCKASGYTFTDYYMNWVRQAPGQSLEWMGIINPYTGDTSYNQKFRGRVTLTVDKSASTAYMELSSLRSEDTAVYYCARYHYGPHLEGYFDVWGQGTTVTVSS VL: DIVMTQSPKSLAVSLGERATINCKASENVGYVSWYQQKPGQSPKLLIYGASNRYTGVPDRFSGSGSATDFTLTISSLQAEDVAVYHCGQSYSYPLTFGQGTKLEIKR 0.00082

Quickly give me recorded koff for hu98L3H5 (antibody, human IgG1, kappa, V domains shown) VH: EVQLVESGGGLVQPGGSLRLSCAASGFTFSDYGMHWVRQAPGKGLEWVAYISSGGYTSYYADTVKGRFTISRDNAKNSLYLQMNSLRAEDTAVYYCARGDYEDIFYTMDYWGQGTTVTVSS VL: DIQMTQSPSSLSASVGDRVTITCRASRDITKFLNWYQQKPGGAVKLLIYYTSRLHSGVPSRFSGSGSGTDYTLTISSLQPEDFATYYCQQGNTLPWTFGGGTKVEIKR 0.00173
